Hello, the source for this data is PubChem BioAssay (NCI), in case you need it.

Reported TGI values for the following molecules.
- System: SN12C renal
- procedure-details: NCI tumour cell line growth inhibition, 48 h

The cases that follow already have their TGI on record.
* CC(NC(=O)OC(C)(C)C)C(=O)NC(Cc1ccccc1)C(=O)NCC(=O)ON=C1CCCC1 (stereo unspecified) | > 100 µM
* Cc1cc2c(c3c1c1ccccc1n3C)C(=O)c1ccccc1C2=O | > 100 µM
* COc1ccc2c(c1)CCc1c(C(C)=O)c3ccccc3n1C2 | > 100 µM
* CC(C)(Oc1ccc(Cl)cc1)C(=O)N(C(=O)N1CCN(c2ccccc2)CC1)c1ccccc1 | > 100 µM
* C=C1CCC(OC(C)=O)C2(C)C(OC(C)=O)CC3OC3(C)C2C(OC(C)=O)C2C(C)C(=O)OC2C1Cl (stereo unspecified) | > 100 µM

Query: # query: TGI of entry Cc1cc2nc(N3C(=O)/C(=C/c4ccc(Oc5ccccc5)cc4)N=C3c3ccccc3)sc2cc1C
Result: > 100 µM

Query: Same question, Cc1ccc(NC(=O)c2cc(S(=O)(=O)Nc3n[nH]c(=O)n3-c3ccccc3)c(S)cc2Cl)cc1 this time
Result: > 100 µM

Query: Same question, CCCCCCCCCC(CCCC(O)CC(=O)O)OC1OC(COC2OC(C)C(O)C(O)C2O)C(O)C(O)C1OC1OC(CO)C(O)C(O)C1OC1OC(C)C(OC(=O)CC(C)C)C(O)C1O (stereo unspecified) this time
Result: > 60 µM

Query: Same question, COc1cc(-c2cc(/C=C3\C(=O)Nc4cc(Cl)ccc43)[nH]n2)cc(OC)c1OC this time
Result: 14.2 µM

Query: Same question, O=[N+]([O-])/C(C(Cl)=C(Cl)Cl)=C1\NCCS1 this time
Result: > 100 µM

Query: Same question, COc1ccc2c(C)cc(C)nc2n1 this time
Result: > 100 µM

Query: Same question, Clc1ccc(CNc2ccc3nc(CCC4CCCCC4)[nH]c3c2)cc1 this time
Result: 11.5 µM

Query: Same question, Cc1cc2c(=O)cc(-c3cccs3)oc2c(C(=O)O)c1C this time
Result: > 100 µM

Query: Same question, CC1(C(=O)Nc2ccc3cc4ccccc4cc3c2)CC2(C)CC(C)(C1)C(O)NC2=O (stereo unspecified) this time
Result: > 100 µM

Query: Same question, CCSc1cc(C(=O)OC)c2n(c1=O)CCCC2 this time
Result: > 100 µM

Query: Same question, Cc1c2c(nn1-c1ccc(S/N=C3\SCC(=O)CN3Cc3ccccc3)cc1)-c1ccccc1CC2 this time
Result: 99.7 µM

Query: Same question, COc1ccc(C2SCc3nc4ccccc4n32)cc1 (stereo unspecified) this time
Result: > 100 µM

Query: Same question, CCOP(=O)(OCC)C1CC(C)OC1=O (stereo unspecified) this time
Result: > 100 µM

Query: Same question, C1OC1C1CO1 (stereo unspecified) this time
Result: > 100 µM

Query: Same question, CCNCC(O)COc1ccc2c(c1)[n+]([O-])nc(N)[n+]2[O-] (stereo unspecified) this time
Result: > 100 µM

---

- Tested on: RXF-631 renal
- procedure-details: NCI tumour cell line growth inhibition, 48 h
Reported TGI values for the following compounds.

The cases that follow already have their TGI on record.
- CCOCc1cc(=O)c2cc3c(cc2o1)OC(C)(C)CC3: > 100 µM
- O=C(CC1C(=O)Nc2ccccc2S1(=O)=O)Nc1cc(Cl)ccc1Cl (stereo not drawn): 88.9 µM
- COC12OCCN(CCO)C1=CC(=O)C1(C)N=NC(C)C12 (stereo not drawn): > 100 µM
- CCOP(=O)(OCC)C1CC(C)OC1=O (stereo not drawn): > 100 µM
- O=[As]O: 22.5 µM

Query: # query: TGI of entry C=C1CCC(OC(C)=O)C2(C)C(OC(C)=O)CC3OC3(C)C2C(OC(C)=O)C2C(C)C(=O)OC2C1Cl (stereo not drawn)
Result: > 100 µM

Query: Same question, c1ccc(-c2[o+]c(-c3ccccc3)c(-c3ccccc3)c(-c3ccccc3)c2-c2ccccc2)cc1 this time
Result: > 100 µM

Query: Same question, CCOC(=O)Cn1c(=O)[nH]c(=O)c2c1ncn2Cc1ccccc1 this time
Result: > 100 µM
